Could you please report measured Doubling Time of Initial Tumor Volume after PDT for the items listed next?
tested on: RIF-1 (radiation-induced fibrosarcoma) tumors; assay: PDT of RIF-1 implanted tumors; type: in vivo, C3H/HeN mice; details: 1 mg/kg in corn oil, 675 nm, 135 J/cm^2; controls 4 days
Form field: result (number plus unit)

Simply: C[N+](C)(C)CCC[Si](C)(C)O[Si]1(O)n2c3c4ccccc4c2N=C2N=C(N=c4c5ccccc5c(n41)=NC1=NC(=N3)c3ccccc31)c1ccccc12.[I-] (centres unmarked) [Compound V, HOSiPcOSi(CH3)2(CH2)3N(CH3)3^+I^−] , RIF-1 (radiation-induced fibrosarcoma) tumors, Doubling Time of Initial Tumor Volume after PDT = 6 days

Simply: CN1CCN(CCC[Si](C)(C)O[Si]2(O)n3c4c5ccccc5c3N=C3N=C(N=c5c6ccccc6c(n52)=NC2=NC(=N4)c4ccccc42)c2ccccc23)CC1 (centres unmarked) [Compound XXVIII, HOSiPcOSi(CH3)2(CH2)3NC4H8NCH3] , RIF-1 (radiation-induced fibrosarcoma) tumors, Doubling Time of Initial Tumor Volume after PDT = 24 days
